- Tested on: HS729
- assay_text: relative viability vs DMSO control (72 h) (fraction); higher = more viable cells
- assay_conditions: 0.00457 µM
quantity_name: relative viability
Answer with the value's number alone.

// query What is its relative viability for HS729? Entry: CN1CC[C@@H](NC(=O)Nc2ccc(C#N)cc2)C[C@@H]1c1nc2ccccc2[nH]1
// result 0.993

// query What is its relative viability for HS729? Entry: CC(C)(C)c1nc(-c2cccc(NS(=O)(=O)c3c(F)cccc3F)c2F)c(-c2ccnc(N)n2)s1
// result 0.85

// query What is its relative viability for HS729? Entry: O=C1NC(=O)[C@@H](c2cn3c4c(cccc24)CCC3)[C@@H]1c1c[nH]c2ccccc12 [Tivantinib]
// result 0.899

// query What is its relative viability for HS729? Entry: N#CC1(c2ccc(NC(=O)c3cccnc3NCc3ccncc3)cc2)CCCC1
// result 1.04

// query What is its relative viability for HS729? Entry: CC(C)(O)CNc1nc(Nc2ccnc(C(F)(F)F)c2)nc(-c2cccc(C(F)(F)F)n2)n1
// result 1

// query What is its relative viability for HS729? Entry: Cc1cc2cc(Oc3ccnc(Nc4cccc(CS(=O)(=O)NCCN(C)C)c4)n3)ccc2[nH]1
// result 0.9

// query What is its relative viability for HS729? Entry: C[C@]12O[C@H](C[C@]1(O)CO)n1c3ccccc3c3c4c(c5c6ccccc6n2c5c31)CNC4=O
// result 0.932

// query What is its relative viability for HS729? Entry: CC[C@@H]1CN(C(=O)NCC(F)(F)F)C[C@@H]1c1cnc2cnc3[nH]ccc3n12
// result 0.97

// query What is its relative viability for HS729? Entry: CCC(=O)N1CC[C@H](Nc2ncnc3c2CN(c2cnc(OC)c(C(F)(F)F)c2)CC3)C1
// result 0.982

// query What is its relative viability for HS729? Entry: O=S(=O)(c1cccc2cnccc12)N1CCCNCC1
// result 1.01

// query What is its relative viability for HS729? Entry: Cn1cc(C2=C(c3cn(C4CCN(Cc5ccccn5)CC4)c4ccccc34)C(=O)NC2=O)c2ccccc21
// result 1.07

// query What is its relative viability for HS729? Entry: Clc1ccc(Nc2nnc(Cc3ccncc3)c3ccccc23)cc1
// result 0.88

// query What is its relative viability for HS729? Entry: COc1cc(CCc2cc(NC(=O)c3ccc(N4CC(C)NC(C)C4)cc3)n[nH]2)cc(OC)c1 (stereo not given)
// result 0.901

// query What is its relative viability for HS729? Entry: N#CCNC(=O)c1ccc(-c2ccnc(Nc3ccc(N4CCOCC4)cc3)n2)cc1
// result 1.06

// query What is its relative viability for HS729? Entry: CO[C@H]1C[C@@H]2CC[C@@H](C)[C@@](O)(O2)C(=O)C(=O)N2CCCC[C@H]2C(=O)O[C@H]([C@H](C)C[C@@H]2CC[C@@H](OCCO)[C@H](OC)C2)CC(=O)[C@H](C)/C=C(\C)[C@@H](O)[C@@H](OC)C(=O)[C@H](C)C[C@H](C)/C=C/C=C/C=C/1C
// result 0.835

###

I'd be grateful if you could share measured relative viability for these entries.
- Test system: VA-ES-BJ
- assay_text: relative viability vs DMSO control (72 h) (fraction); higher = more viable cells
- assay_conditions: 0.1235 µM
Answer with the value's number alone.

// query Requested field: relative viability. Item: Cc1ccc(Nc2nccc(N(C)c3ccc4c(C)n(C)nc4c3)n2)cc1S(N)(=O)=O [Pazopanib]
// result 1.08

// query Requested field: relative viability. Item: CNC(=O)c1ccccc1Sc1ccc2c(/C=C/c3ccccn3)n[nH]c2c1 [Axitinib]
// result 1.05

// query Requested field: relative viability. Item: CNC(=O)c1nnc(NC(=O)C2CC2)cc1Nc1cccc(-c2ncn(C)n2)c1OC
// result 1.03

// query Requested field: relative viability. Item: Cc1cccc(-c2nn3c(c2-c2ccnc4ccc(C(N)=O)cc24)CCC3)n1 [Galunisertib]
// result 1.01

Provenance of the data: the supplement of paper PMC10883282
